Biological target: DNA topoisomerase 1 (Homo sapiens)
Test: Inhibition of recombinant human topoisomerase 1 expressed in yeast TopI null strain RS190 at 100 uM using negatively supercoiled pUC18 plasmid DNA as substrate incubated for 15 secs by agarose gel electrophoresis method
Details: time 15.0 sec
Endpoint: inhibition (%)
State just the number; it will be interpreted in %.

# Smiles, Endpoint, Number
data = [
    ("COc1ccc(-c2c3c(nc4ncccc24)-c2ccccc2OC3)cc1", "inhibition", 11),
    ("c1ccc([C@@H]2c3cccnc3N[C@@H]3c4ccccc4OC[C@@H]23)cc1", "inhibition", 61),
    ("Cc1ccc(S(=O)(=O)N2Cc3c(nc4ncccc4c3-c3ccccc3)-c3ccccc32)cc1", "inhibition", 95),
    ("O=C1Oc2ccc(F)cc2[C@H]2Nc3ncccc3[C@@H](c3ccccc3)[C@H]12", "inhibition", 5),
]

# ---- query molecule ----
inhibition lookup needed for O=C1Oc2ccccc2[C@H]2Nc3ncc(Br)cc3[C@@H](c3ccccc3)[C@H]12 , thanks.
11

Sourced from ChEMBL document CHEMBL4819121
